Target: T1, IL-2Rβ (UniProt P14784 27-240, limits assumed, biotinylated (site not stated))
T1 construct: also called CD122; IL-2Rbeta
T1 sequence (looked up): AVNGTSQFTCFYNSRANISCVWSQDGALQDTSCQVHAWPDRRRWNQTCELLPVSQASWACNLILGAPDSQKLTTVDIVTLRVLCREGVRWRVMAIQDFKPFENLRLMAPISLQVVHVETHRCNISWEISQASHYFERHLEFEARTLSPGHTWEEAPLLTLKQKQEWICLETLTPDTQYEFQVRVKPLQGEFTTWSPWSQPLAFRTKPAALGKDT
Test: SPR Biacore T100, steady-state; biotinylated IL-2Rβ on chip
pKd: −log10 of the molar value.
READOUT LABEL: pKd

[[record]]
binder = "in silico designed IL-2 variant SEQ ID NO: 3, MSA fusion protein (ligand, not shown: large carriers; small tags and cut ends) APTSSSTKKTQLQLEHLLLDLQMILNMLNNYDNPKLTRLLTFKFYMPKKATSLKHLQCLEEELKPLEEALNAAGDDPKTIRDLISNINVIVLELKGSETTFMCEYADETATIIEFLNRWITFCQSIISTLT"
result_value = 6.44

[[record]]
binder = "in silico designed IL-2 variant SEQ ID NO: 9, MSA fusion protein (ligand, not shown: large carriers; small tags and cut ends) APTSSSTKKTQLQLEHLLLDLQMILNMLNNYDNPKLTRLLTFKFYMPKKATSLKHLQCLEEELKPLEEALNQADSTDSRIRDLISNINVIVLELKGSETTFMCEYADETATIIEFLNRWITFCQSIISTLT"
result_value = 6.42

[[record]]
binder = "in silico designed IL-2 variant SEQ ID NO: 14, MSA fusion protein (ligand, not shown: large carriers; small tags and cut ends) APTSSSTKKTQLQLEHLLLDLQMILNMLNNYDNPKLTRMLTFKFYMPKKATELKHLQCLEEELKPLEEALNLAQSKNFHLDPRDLISNINVIVLELKGSETTFMCEYADETATIIEFLNRWITFCQSIISTLT"
result_value = 6.71

[[record]]
binder = "in silico designed IL-2 variant SEQ ID NO: 7, MSA fusion protein (ligand, not shown: large carriers; small tags and cut ends) APTSSSTKKTQLQLEHLLLDLQMILNMLNNYDNPKLTRMLTFKFYMPKKATELKHLQCLEEELKPLEEALNQADSTDETVRDLISNINVIVLELKGSETTFMCEYADETATIIEFLNRWITFCQSIISTLT"
result_value = 7.07

[[record]]
binder = "in silico designed IL-2 variant SEQ ID NO: 10, MSA fusion protein (ligand, not shown: mouse serum albumin (MSA), fusion partner) APTSSSTKKTQLQLEHLLLDLQMILNMLNNYDNPKLTRLLTFKFYMPKKATSLKHLQCLEEELKPLEEALNQASKDQKKVRDVVSNINVFVLELKGSETTFMCEYADETATIIEFLNRWITFCQSIISTLT"
result_value = 6.86

[[record]]
binder = "Super-2 (H9) IL-2 variant, expressed as MSA fusion protein (ligand, not shown: large carriers; small tags and cut ends, also called H9 super-2; MSA-H9-super-2) APTSSSTKKTQLQLEHLLLDLQMILNGINNYKNPKLTRMLTFKFYMPKKATELKHLQCLEEELKPLEEVLNLAQSKNFHFDPRDVVSNINVFVLELKGSETTFMCEYADETATIVEFLNRWITFCQSIISTLT"
result_value = 7.79

[[record]]
binder = "in silico designed IL-2 variant SEQ ID NO: 2, MSA fusion protein (ligand, not shown: large carriers; small tags and cut ends) APTSSSTKKTQLQLEHLLLDLQMILNMLNNYDNPKLTRLLTFKFYMPKKATELKHLQCLEEELKPLEEALNAAGDDPKTIRDLISNINVIVLELKGSETTFMCEYADETATIIEFLNRWITFCQSIISTLT"
result_value = 6.39

